Values compiled from PubChem BioAssay (NCI).

Below: a set of entries, each annotated with reported growth.
# Tested on: IGROV1 ovarian
# EXPERIMENTAL DETAILS: NCI-60 one-dose screen, 48 h (100 = growth as untreated, 0 = no growth, -100 = all killed)
# RUN CONDITIONS: 10 µM unless noted
About 83,000 compounds went through this panel and 20% of them were active in at least one assay; those are over-represented in the sample as a whole. The source made the active and inactive calls. The calls were made as follows: active = growth percent below 10; inactive = the rest.

| MOLECULE | growth |
| --- | --- |
| CC(C)C1C2=C(NCCN1C(=O)Cc1ccccc1)C(C)(C)N(Cc1ccccc1)C2=O (stereo not given) | 98.8% (inactive) |
| COc1ccc(C(=O)c2cc(C)c(OC)c(C)c2)c(OC)c1O | 25.9% (inactive) |
| O=C1CCC(NC(=S)Nc2ccccc2)N1 (stereo not given) | 102% (inactive) |
| c1ccc(-c2nnc(Nc3ccc4c(c3)OCCO4)o2)c(NCc2ccncc2)c1 | 28.5% (inactive) |
| COc1ccc(C(=O)c2cc3c(N)c(C(=O)Nc4cccc5ccccc45)sc3nc2C)cc1 | 23.8% (inactive) |
| N#Cc1ccc(-c2ccc3c(c2)NC(=O)/C3=C\c2ccc[nH]2)cc1 | 66.2% (inactive) |
| O=C(NCCc1ccccn1)OCc1nc2nc(Cl)nc(N3CCOCC3)c2[nH]1 | 23.9% (inactive) |
| NS(=O)(=O)c1cccc(NC(=O)C(=O)C2C(=O)Nc3ccccc32)c1 (stereo not given) | 76.4% (inactive) |
| O=C(CNCCO)Nc1ccc2ncnc(Nc3ccc(OCc4cccc(F)c4)c(Cl)c3)c2c1 | 33.6% (inactive) |
| CC(=O)c1c(-c2ccc(OC(F)(F)F)cc2)nc2ccccn12 | 88.8% (inactive) |
| COc1ccc(Cc2nc3cc(OC)c(OC)cc3c(=O)[nH]2)cc1 | 65.7% (inactive) |
| CNC(=O)NCC1OC(n2cnc3c(NC(=O)Nc4ccccc4)ncnc32)C(O[Si](C)(C)C(C)(C)C)C1O[Si](C)(C)C(C)(C)C (stereo not given) | 52.5% (inactive) |
| CN1CCN(c2ccc(NC3=C(Cl)C(=O)c4ncccc4C3=O)cc2C#N)CC1 | -29.1% (active) |
| C#Cc1cccc(NC(=O)Nc2ccc(NC(=O)CCl)cc2)c1 | -88% [8.25 µM] (active) |
| Cc1ccc(C(=O)Nc2ccccc2C(=O)N/N=C(\c2ccccc2)c2ccccn2)cc1 | 24% (inactive) |
| O=C(c1ccccc1)N1N=C(c2ccc(-n3ccc(C(F)(F)F)n3)cc2)CC1c1ccc[nH]1 (stereo not given) | 95.8% (inactive) |
| COc1cc(OC)c(/C=C/C(=O)c2ccc(Nc3ncnc4ccccc34)cc2)c(OC)c1 | 19.3% (inactive) |
| CCCN=C(N)c1ccc(NC(=O)c2ccc(C(=O)Nc3ccc(C(N)=NCCC)cc3)cc2)cc1 | 96.6% (inactive) |
| COc1ccc(-c2cnc(N)nc2-c2ccc(OC)cc2O)cc1 | 83.8% (inactive) |
| COc1ccc(C2=NN(C(C)=O)C(c3cn(Cc4ccc(Cl)cc4)c4ccccc34)C2)cc1 (stereo not given) | 77.5% (inactive) |

* * *

# Tested on: SN12C renal
# EXPERIMENTAL DETAILS: NCI-60 one-dose screen, 48 h (100 = growth as untreated, 0 = no growth, -100 = all killed)
# RUN CONDITIONS: 10 µM unless noted
This is part of a sample that, as a whole, favours compounds with a hit. Of some 83,000 tested, about 20% had one in any assay.
hey, just use met if measured growth is less than 90%, otherwise not met

| SMILES REPRESENTATION | CLASS ASSIGNMENT |
| --- | --- |
| O=C(Nc1cccc(Cl)c1)c1cc(Cl)ccc1O | met |
| N#Cc1cc(-c2nc3ccccc3s2)c(=O)n(NS(=O)(=O)c2ccc(Cl)cc2)c1N | not met |
| c1ccc(-c2nn(-c3ccccc3)[n+](-c3ccccc3-c3ccccc3)n2)cc1 | met |
| COc1ccc2c(c1)c(CC(=O)NCCOCCOCC(=O)Nc1ccc(OC)c(C(N)=O)c1O)c(C)n2C(=O)c1ccc(Cl)cc1 | not met |
| CC(C)[N+](C)(CCOC(COc1ccccc1)COc1ccccc1)C(C)C | met |
